# Tested on: Plasmodium berghei
# protocol: Screen against P. berghei liver stage (PbLuc), transformed with Luciferase, at 2uM
# Format: functional, HepG2
# conditions: tested at 2 uM
Out of some 68,000 compounds screened, about 2,700 (4%) showed an effect of 50% or more. Shown is part of a subset that was picked to be rich in strong results.
parameter: INHIBITION (%)
The response must be a number in % with no trailing unit.

// worked examples, INHIBITION included
                                   compound  result_unit  reported_result
0  CC(C)C1CN(C(=O)c2ccc3nccnc3c2)CCS1 (stereo not given)            %            43.29
1       c1coc(CN2CCC(c3ccc4c(c3)OCO4)CC2)c1            %            -8.85
2  CC(C)NC(=O)C1CN(C(=O)c2ccccc2)CC12CCOCC2 (stereo not given)            %            34.48

Kindly consider the entry below.
Ask: Tell me the measured INHIBITION of `CC(C)NC(=O)[C@@H]1CC[C@@H]2[C@@H](CCN2Cc2cn(C)c3ccccc23)O1` , please.
Result: 29.43
